Hey, just so you know, these numbers are from patent US8815909B2.

A collection of compounds and their measured EC50
# System Under Test: human Y4 receptor (Homo sapiens)
# Construct: expressed in transfected cells
# Sequence (P50391 whole entry): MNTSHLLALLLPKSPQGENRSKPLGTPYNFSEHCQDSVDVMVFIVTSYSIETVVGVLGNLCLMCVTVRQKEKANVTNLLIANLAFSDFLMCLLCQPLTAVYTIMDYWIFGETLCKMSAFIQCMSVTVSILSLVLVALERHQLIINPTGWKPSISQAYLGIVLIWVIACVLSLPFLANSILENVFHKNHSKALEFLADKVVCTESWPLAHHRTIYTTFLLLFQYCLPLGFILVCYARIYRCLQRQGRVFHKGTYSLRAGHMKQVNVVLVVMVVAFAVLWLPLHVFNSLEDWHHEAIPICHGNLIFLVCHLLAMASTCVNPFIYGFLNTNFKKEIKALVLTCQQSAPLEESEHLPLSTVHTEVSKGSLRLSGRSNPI
# Method Notes: NPY4 cAMP HTRF Agonist Assay (inhibitory cAMP assay, Gi activation by Y4 agonism)
# Format: cell-based
# Applied Conditions: human Y4 receptor, cAMP; read-out: hY4 CAMP EC50
Property Name: EC50 (nM)

Compound | Recorded Measurement
NC(=O)c1cccc(-c2cnc(N[C@@H]3CCCC[C@H]3N[C@H]3C[C@@H]4C[C@H]3N(c3cnc(C(F)(F)F)cn3)C4)o2)c1 | 162
N#Cc1ccc(N2CCCC(N[C@@H]3CCCC[C@H]3Nc3ncc(-c4cccc(C(N)=O)c4)o3)C2)nn1 (some centres unmarked) | 333
N#Cc1cnc(N2C[C@@H]3C[C@H](N[C@@H]4CCCC[C@H]4Nc4cc(-c5cccc(C(N)=O)c5)ccn4)[C@H]2C3)nc1 | 228
Cc1nc(-c2ccc(N3CCC[C@H](N[C@@H]4CCCC[C@H]4Nc4cc(-c5cccc(C(N)=O)c5)ccn4)C3)cn2)no1 | 4
NC(=O)c1cccc(-c2ccnc(N[C@@H]3CCCC[C@H]3N[C@H]3C[C@@H]4C[C@H]3N(c3cnc(C(F)(F)F)cn3)C4)c2)c1 | 329
COC(=O)Nc1cccc(-c2ccnc(N[C@@H]3CCCC[C@H]3N[C@H]3CCCN(c4ccc(-c5ccccc5)cc4)C3)c2)c1 | 17
Cc1nc2ccc(N3CCC[C@H](N[C@@H]4CCCC[C@H]4Nc4ncc(-c5cccc(C(N)=O)c5)o4)C3)cn2n1 | 3
N#Cc1ncc(N2CCC[C@H](N[C@@H]3CCCC[C@H]3Nc3cc(-c4cccc(C(N)=O)c4)ccn3)C2)cn1 | 171
Cc1nnc(-c2ccc(N3CCCC(N[C@@H]4CCCC[C@H]4Nc4cc(-c5ccc(F)cc5)ccn4)C3)cc2)o1 (some centres unmarked) | 3
CCc1nc(-c2ccc(N3CCC[C@H](N[C@@H]4CCCC[C@H]4Nc4cc(-c5cccc(C(N)=O)c5)ccn4)C3)nc2)no1 | 8
Cn1nnnc1-c1ccc(N2CCC[C@H](N[C@@H]3CCCC[C@H]3Nc3nccc(-c4ccccc4)n3)C2)cc1 | 98
NC(=O)c1cccc(-c2cnc(N[C@@H]3CCCC[C@H]3N[C@H]3CCCN(c4ncc(C(F)(F)F)cn4)C3)o2)c1 | 5
NC(=O)c1cccc(-c2ccnc(N[C@@H]3CCCC[C@H]3N[C@H]3CCCN(c4ccc(-n5cncn5)cc4)C3)c2)c1 | 650
C[C@]1(N[C@@H]2CCCC[C@H]2Nc2ncc(-c3cccc(C(N)=O)c3)o2)CCCN(c2cnc(C#N)cn2)C1 | 49
N#Cc1cc(N2C[C@@H]3C[C@H](N[C@@H]4CCCC[C@H]4Nc4ncc(-c5ccc(OC(F)(F)F)cc5)o4)[C@H]2C3)ncn1 | 378
COC(=O)Nc1cccc(-c2ccnc(N[C@@H]3CCCC[C@H]3N[C@H]3CCCN(c4ccc(-c5cccnc5)cc4)C3)c2)c1 | 4
Cc1nnc(-c2ccc(N3CCCC(N[C@@H]4CCCC[C@H]4Nc4cc(-c5ccc6c(c5)OCO6)ccn4)C3)cc2)o1 (some centres unmarked) | 39

###

# System Under Test: human Y4 receptor (Homo sapiens)
# Construct: expressed in transfected cells
# Method Notes: NPY4 cAMP HTRF Agonist Assay (inhibitory cAMP assay, Gi activation by Y4 agonism)
# Type: cell-based
# Applied Conditions: human Y4 receptor, cAMP; read-out: hY4 CAMP EC50
pEC50: −log10 of the molar value.
A collection of compounds and their measured pEC50
Property Name: pEC50

Structure Smiles String | Recorded Measurement
C[C@]1(N[C@@H]2CCCC[C@H]2Nc2ncc(-c3cccc(C(N)=O)c3)o2)CCCN(c2ncc(C(F)(F)F)cn2)C1 | 8.40
CS(=O)(=O)Nc1cccc(-c2cnc(N[C@@H]3CCCC[C@H]3N[C@H]3CCCN(c4cnc(C(F)(F)F)nc4)C3)o2)c1 | 8.30
N#Cc1ncc(N2CCC[C@H](N[C@@H]3CCCC[C@H]3Nc3ncc(-c4cccc(C(N)=O)c4)o3)C2)cn1 | 8.30
CNC(=O)c1cccc(-c2cnc(N[C@@H]3CCCC[C@H]3N[C@H]3CCCN(c4cnc(C(F)(F)F)cn4)C3)o2)c1 | 8.70
Cc1nc(-c2ncc(N3CCC[C@H](N[C@@H]4CCCC[C@H]4Nc4cc(C#N)ccn4)C3)cn2)no1 | 7.02
